assay: recombinant barcode read abundance after kanamycin selection (control-corrected) (log10(CPM+1)); higher = more efficient recombination; sequences stand for … in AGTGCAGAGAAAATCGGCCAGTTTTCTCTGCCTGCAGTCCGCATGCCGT…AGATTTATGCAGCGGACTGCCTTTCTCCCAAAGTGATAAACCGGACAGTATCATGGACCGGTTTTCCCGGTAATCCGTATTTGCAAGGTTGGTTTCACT; site = the 11-nt target;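 also: IS621 recombinase and bridge RNA in Escherichia coli cells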
Decision: recombinant barcode read abundance (log10) >= 0.1 yields 1, all other cases yield -1.

[[record]]
monomer_sequence = "ACGCATTCTTGGGTTCTAACCTGTTGCCT (site ACGCAATCTAG)"
class_name = -1

[[record]]
monomer_sequence = "AGGCCGGCTTGGGTTCTAACCTGTTGCCG (site AGGCCGGCTCG)"
class_name = 1

[[record]]
monomer_sequence = "AATAACTCTTGGGTTCTAACCTGTTGCCT (site GATAACTCTAG)"
class_name = 1

[[record]]
monomer_sequence = "CTTCAGGCTTGGGTTCTAACCTGTTGCCT (site CTTGAGACTAG)"
class_name = -1

[[record]]
monomer_sequence = "TAGCGGTCTTGGGTTCTAACCTGTTGCCT (site TAGCGGTCTAG)"
class_name = 1


Where these numbers come from: the supplement of paper PMC11208160
